Data provenance is ChEMBL document CHEMBL2093137.

- Test system: Plasmodium falciparum K1
- Assay info: WHO-TDR: Malaria
- Format: functional, organism-based, Homo sapiens
- Test settings: Erythrocyte
Parameter measured: IC50 (µg/mL)
# value in µg/mL; strip the unit string

Solved cases below.
O=C(Cn1c(=O)n(Cc2cccnc2)c(=O)c2ncccc21)c1ccc2c(c1)CCCC2 ... 2.96
Cc1ccc(C)c(-c2csc(NC(=O)CCCS(=O)(=O)c3ccc(F)cc3)n2)c1 ... 9.42

Now for a further compound.
Entry O=C(CSc1ccc(F)cc1)N(CCCn1ccnc1)c1nc2c(F)cccc2s1 : IC50 on Plasmodium falciparum K1 = 2.13

---

The entries below come with measured IC50 values attached.
- Tested on: Trypanosoma cruzi
- Assay info: WHO-TDR: Chagas disease
- Type: functional, organism-based, Homo sapiens
- Test settings: MRC5

Solved cases below.
Cc1nn2c(=O)[nH]c(SCc3ccccn3)nc2c1-c1ccccc1 ... > 10.5 µg/mL
COc1ccc(-c2ccc(NS(=O)(=O)c3ccc(Cl)s3)cc2)nn1 ... > 11.5 µg/mL
COc1ccc(N2CCN(C(=O)c3csc(NC(=O)c4ccccc4)n3)CC2)cc1 ... > 12.7 µg/mL
CCOC(=O)c1ccccc1NC(=O)CSc1ncc(-c2ccccc2)[nH]1 ... > 11.4 µg/mL
COc1cccc2sc(Nc3nc4c(s3)CCCC4)nc12 ... > 9.52 µg/mL

Please fill in: IC50 reported for CCCC(=O)Nc1nnc(-c2ccc(C)cc2)s1 = > 7.84 µg/mL

Please fill in: IC50 reported for Cc1cc(C(=O)Nc2nc(-c3ccc4c(c3)OCCO4)cs2)n(C)n1 = > 10.7 µg/mL

Please fill in: IC50 reported for COc1ccc(CC(=O)N2CCN(c3nccn3-c3cccc(Cl)c3)CC2)cc1OC = > 14.3 µg/mL

Please fill in: IC50 reported for Cc1ccc(C)c(C(=O)Nc2ccc3c(c2)CCC(=O)N3Cc2ccccc2)c1 = > 11.5 µg/mL

Please fill in: IC50 reported for CSc1ccccc1NC(=O)c1ccc(Cl)s1 = > 8.51 µg/mL

Please fill in: IC50 reported for C=CCN1C(=O)C(C)(C)COc2ccc(NS(=O)(=O)c3ccc4c(c3)OCCO4)cc21 = > 13.3 µg/mL

---

- Tested on: Trypanosoma brucei brucei
- Assay info: WHO-TDR: Human African Trypanosomiasis (HAT)
- Assay type: functional, organism-based
- Test settings: Squib-427
Parameter measured: IC50

Solved cases below.
Cc1ccc(S(=O)(=O)N2CCN(c3ccc(Nc4cccnc4)nn3)CC2)c(C)c1 ... > 12.7 µg/mL
Cc1nnc(NC(=O)CSc2nc(-c3ccccc3)c(N)s2)s1 ... > 10.9 µg/mL

Now for a further compound.
Please fill in: IC50 reported for CCc1ccc(NC(=O)N2CCN(c3ccc(Nc4cc(C)ccn4)nn3)CC2)cc1 = > 12.5 µg/mL

---

- Tested on: Brugia malayi
- Assay info: WHO-TDR: Lymphatic Filariasis
- Format: functional
- Parameters: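 tested at 10 µM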
The entries below come with measured % Inhibition values attached.
# value in %; strip the unit string

Please fill in: % Inhibition reported for Cc1cc(C)c2sc(NC(=O)c3nc4ccccc4s3)nc2c1 = 25

Please fill in: % Inhibition reported for O=C(COc1ccc(Cl)cc1Cl)Nc1nnc(C23CC4CC(CC(C4)C2)C3)s1 = 0

Please fill in: % Inhibition reported for COc1ccc2nc(N(CCCN(C)C)C(=O)CCCSc3ccccc3)sc2c1 = 0

Please fill in: % Inhibition reported for O=C(CSc1nnc(NC(=O)C2CCCCC2)s1)Nc1ccccc1C(F)(F)F = 0

Please fill in: % Inhibition reported for CCOC(=O)c1c(NC(=O)CSc2nc3c([nH]c4ccccc43)c(=O)n2-c2ccccc2)sc2c1CCC2 = 25

Please fill in: % Inhibition reported for COc1ccc(NC(=O)c2oc3ccccc3c2NC(=O)c2cccc(Cl)c2)c(OC)c1 = 0

Please fill in: % Inhibition reported for CC(C)N1CCc2c(sc(NC(=O)COc3ccc(Cl)cc3Cl)c2C(N)=O)C1 = 0
